Data export: pIC50 values recorded with Plasmin (Homo sapiens).
Sequence (P00747 581-810 limits assumed, species assumed): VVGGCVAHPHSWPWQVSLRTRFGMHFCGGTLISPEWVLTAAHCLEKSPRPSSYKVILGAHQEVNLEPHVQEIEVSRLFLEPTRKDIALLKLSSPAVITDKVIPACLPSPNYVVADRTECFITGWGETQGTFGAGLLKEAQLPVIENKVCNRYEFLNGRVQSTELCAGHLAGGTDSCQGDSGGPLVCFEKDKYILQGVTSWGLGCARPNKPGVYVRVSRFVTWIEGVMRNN
Sequence (P00747 97-580 partner limits assumed, species assumed): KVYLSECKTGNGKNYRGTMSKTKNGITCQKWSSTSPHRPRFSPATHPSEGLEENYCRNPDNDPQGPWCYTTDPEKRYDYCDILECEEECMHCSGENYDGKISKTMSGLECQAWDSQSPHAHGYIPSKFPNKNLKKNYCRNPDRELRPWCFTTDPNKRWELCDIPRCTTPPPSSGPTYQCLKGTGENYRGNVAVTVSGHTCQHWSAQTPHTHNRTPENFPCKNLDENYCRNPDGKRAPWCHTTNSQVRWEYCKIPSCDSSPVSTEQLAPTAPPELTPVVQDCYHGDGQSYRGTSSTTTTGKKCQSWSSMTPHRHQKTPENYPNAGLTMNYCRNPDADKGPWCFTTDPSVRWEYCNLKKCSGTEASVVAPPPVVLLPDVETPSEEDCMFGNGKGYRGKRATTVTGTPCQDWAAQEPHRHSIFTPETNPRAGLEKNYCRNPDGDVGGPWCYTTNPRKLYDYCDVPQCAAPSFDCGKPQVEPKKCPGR
In simple prose, pIC50 is minus the logarithm base ten of a concentration in moles per litre.

[H]/N=C(/N)c1ccc(NCc2nc3cc(C(=O)N(CCC(=O)O)c4ccccn4)ccc3n2C)cc1    5.08

## Input Report pIC50 for `COc1ccccc1C(=O)n1nc(C2CCNCC2)c(F)c1NCc1ccc(Cl)s1` please.
## Output 6.15

* * *

Attribute: pEC50
Tested on: thrombin generation in human platelet-poor plasma
Test: Thrombin generation assay (TGA)
Format: biochemical
Details: 70% human platelet-poor plasma, 37°C; read-out: Cmax EC50 (peak height)
In simple prose, pEC50 is minus the logarithm base ten of a concentration in moles per litre.

CC1CNc2c(cccc2S(=O)(=O)N[C@@H](CCCNC(=N)N)C(=O)N2CC[C@@H](C)C[C@@H]2C(=O)O)C1 (stereo partly drawn)    6.57

## Input Report pEC50 for `[H]/N=C(/N)c1ccc(NCc2nc3cc(C(=O)N(CCC(=O)O)c4ccccn4)ccc3n2C)cc1` please.
## Output 6.62

Values compiled from paper PMC6072017.
